Target: UniProt:P21453
Assay: Agonist activity at human S1P1 receptor expressed in EDG1-bla U2OS cells incubated for 18 hrs prior to GenBlazer substrate addition by beta-arrestin recruitment assay
Type: cell-based
Entries and their EC50
# unit: nM | format: bare number

[Q] # get_value(readout='EC50', item= Cc1cc(-c2nc(-c3cc(C)c(OC[C@H]4COC(=O)N4)cn3)no2)cc(NC(C)C)n1 )
[A] 18

[Q] Now consider Cc1cc(-c2nnc(-c3cc(F)c(OC[C@H]4CNC(=O)CO4)cc3Cl)s2)cc(NC(C)C)n1 .
[A] 550

[Q] Now consider Cc1cc(-c2nc(-c3cnc(OC[C@H]4COC(=O)N4)c(C)n3)no2)cc(NC(C)C)n1 .
[A] 2.5

[Q] Now consider Cc1nc(-c2nnc(-c3cc(F)c(OC[C@H](N)CO)cc3Cl)s2)ccc1OC(C)C .
[A] 105

[Q] Now consider Cc1cc(-c2nc(-c3ccc(O[C@H]4CCC(=O)NC4)c(C)n3)no2)cc(NC(C)C)n1 .
[A] 42

[Q] Now consider Cc1cc(-c2nc(-c3ccc(OC[C@H]4COC(=O)N4)c(C)n3)no2)cc(CC(C)C)n1 .
[A] 37

[Q] Now consider Cc1cc(-c2nc(-c3cc(F)c(OC[C@H]4OCC[C@@H]4O)cc3Cl)no2)cc(NC(C)C)n1 .
[A] 6

[Q] Now consider Cc1cc(-c2nnc(-c3cc(F)c(OC[C@H](N)CO)cc3Cl)s2)cc(CC(C)C)n1 .
[A] 0.8

====

Test: Kinetic solubility of the compound in buffer at pH 7.4 after 16 to 19 hrs by UV absorbance assay
Assay type: physicochemical
Settings: read-out: Kinetic_solubility
Entries and their solubility kinetic

Solved cases below.
compound | measurement.label | reported.value
Cc1cc(-c2nnc(-c3cc(F)c(O[C@@H]4CNC(=O)C4)cc3Cl)s2)cc(NC(C)C)n1 | solubility kinetic | 0.6 µg/mL
Cc1cc(-c2nc(-c3cc(F)c(O[C@H]4COC[C@H]4O)cc3Cl)no2)cc(NC(C)C)n1 (racemic) | solubility kinetic | 0.1 µg/mL
CC(C)Oc1ncc(-c2nnc(-c3cc(F)c(OC[C@H](N)CO)cc3Cl)s2)cc1Cl | solubility kinetic | < 0.1 µg/mL

[Q] # get_value(readout='solubility kinetic', item= Cc1cc(-c2nc(-c3cc(F)c(O[C@@H]4CNC(=O)C4)cc3Cl)no2)cc(NC(C)C)n1 )
[A] 0.1 µg/mL

[Q] Now consider Cc1nc(CC(C)C)cc(-c2nc(-c3ccc(O[C@@H]4CCC(=O)NC4)c(F)c3)no2)n1 .
[A] > 40 µg/mL

[Q] Now consider CC(=O)N1CCOC[C@@H]1COc1cc(Cl)c(-c2noc(-c3cc(C)nc(NC(C)C)c3)n2)cc1F .
[A] 0.1 µg/mL

[Q] Now consider Cc1cc(-c2nc(-c3ccc(OC[C@H]4COC(=O)N4)c(C)n3)no2)cc(NC(C)C)n1 .
[A] 17 µg/mL

[Q] Now consider Cc1cc(-c2nc(-c3cc(F)c(O[C@H]4CCC(=O)NC4)cc3Cl)no2)cc(NC(C)C)n1 .
[A] 0.1 µg/mL

====

Entries and their solubility kinetic
Assay: Kinetic solubility of the compound in buffer at pH 7.4 after 16 to 19 hrs by UV absorbance assay
Type: physicochemical
Settings: read-out: Kinetic_solubility

Solved cases below.
input.smiles | solubility kinetic
Cc1cc(-c2nc(-c3cc(C)c(OC[C@@H]4CCC(=O)N4)c(C)n3)no2)cc(CC(C)C)n1 | > 40 µg/mL
Cc1cc(-c2nc(-c3ccc(O[C@H]4CCC(=O)NC4)c(C)n3)no2)cc(NC(C)C)n1 | > 40 µg/mL
Cc1cc(-c2nc(-c3ccc(OC[C@H]4COC(=O)N4)c(F)c3)no2)cc(NC(C)C)n1 | 0.1 µg/mL
Cc1cc(-c2nc(-c3cc(F)c(OC[C@H](N)CO)cc3Cl)no2)cc(OC(C)C)n1 | 0.2 µg/mL
Cc1cc(-c2nc(-c3cc(F)c(OC[C@H]4OCC[C@@H]4O)cc3Cl)no2)cc(NC(C)C)n1 | 0.1 µg/mL
Cc1cc(-c2nc(-c3ccc(OC[C@H]4COC(=O)N4)cn3)no2)cc(NC(C)C)n1 | 0.9 µg/mL
Cc1cc(-c2nnc(-c3cc(F)c(OC[C@H]4CNC(=O)CO4)cc3Cl)s2)cc(NC(C)C)n1 | 0.8 µg/mL
Cc1cc(-c2nc(-c3cc(F)c(OC[C@H]4CCC(=O)N4)cc3Cl)no2)cc(NC(C)C)n1 | 0.1 µg/mL
Cc1cc(-c2nc(-c3cc(F)c(OC[C@H]4CNC(=O)CO4)cc3Cl)no2)cc(NC(C)C)n1 | 0.1 µg/mL
Cc1cc(-c2nc(-c3cnc(OC[C@H]4COC(=O)N4)c(C)c3)no2)cc(CC(C)C)n1 | 0.9 µg/mL

[Q] # get_value(readout='solubility kinetic', item= Cc1nc(-c2nc(-c3cc(F)c(OC[C@H](N)CO)cc3Cl)no2)ccc1OC(C)C )
[A] 8 µg/mL

[Q] Now consider Cc1cc(-c2nnc(-c3cc(F)c(OC[C@H](N)CO)cc3Cl)s2)cc(CC(C)C)n1 .
[A] 25 µg/mL

[Q] Now consider Cc1cc(-c2nc(-c3cc(F)c(O[C@@H]4CCC(=O)NC4)cc3Cl)no2)cc(NC(C)C)n1 .
[A] 0.1 µg/mL

[Q] Now consider Cc1cc(-c2nc(-c3cc(C)c(OC[C@H]4COC(=O)N4)cn3)no2)cc(NC(C)C)n1 .
[A] 0.2 µg/mL

[Q] Now consider CC(C)Oc1ncc(-c2nnc(-c3cc(F)c(OC[C@H](N)CO)cc3Cl)s2)cc1C#N .
[A] < 0.1 µg/mL

====

Entries and their EC50
Target: Sphingosine 1-phosphate receptor 1 (Homo sapiens)
Sequence (P21453 whole entry): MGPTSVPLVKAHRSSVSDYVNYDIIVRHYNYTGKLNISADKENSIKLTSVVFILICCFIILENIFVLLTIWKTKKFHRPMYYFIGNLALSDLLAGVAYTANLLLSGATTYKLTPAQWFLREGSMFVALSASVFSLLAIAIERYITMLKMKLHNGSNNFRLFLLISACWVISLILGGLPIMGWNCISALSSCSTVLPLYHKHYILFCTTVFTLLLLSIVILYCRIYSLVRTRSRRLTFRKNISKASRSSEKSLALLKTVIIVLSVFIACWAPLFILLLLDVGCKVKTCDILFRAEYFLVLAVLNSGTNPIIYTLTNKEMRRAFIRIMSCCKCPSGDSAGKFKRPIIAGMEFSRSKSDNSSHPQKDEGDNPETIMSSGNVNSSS
Assay: Agonist activity at human S1P1 receptor expressed in EDG1-bla U2OS cells incubated for 18 hrs prior to GenBlazer substrate addition by beta-arrestin recruitment assay
# unit: µM | format: bare number

Solved cases below.
molecule | reported.value
Cc1cc(-c2nc(-c3ccc(OC[C@H]4COC(=O)N4)cc3)no2)cc(NC(C)C)n1 | 0.0028
CC(C)Oc1ncc(-c2nc(-c3cc(F)c(OC[C@H](N)CO)cc3Cl)no2)cc1Cl | 0.013
Cc1cc(-c2nc(-c3cc(F)c(OC[C@H]4COC(=O)N4)cc3Cl)no2)cc(NC(C)C)n1 | 0.0006

[Q] # get_value(readout='EC50', item= Cc1cc(-c2nnc(-c3cc(F)c(OC[C@H]4COC(=O)N4)cc3Cl)s2)cc(NC(C)C)n1 )
[A] 0.086

[Q] Now consider CC(=O)N1CCOC[C@@H]1COc1cc(Cl)c(-c2noc(-c3cc(C)nc(NC(C)C)c3)n2)cc1F .
[A] 0.0041

[Q] Now consider CC(C)Oc1ccc(-c2nc(-c3cc(F)c(OC[C@H](N)CO)cc3Cl)no2)cc1C#N .
[A] 0.0001

[Q] Now consider Cc1cc(-c2nc(-c3cc(F)c(O[C@@H]4CCC(=O)NC4)cc3Cl)no2)cc(NC(C)C)n1 .
[A] 0.0008

[Q] Now consider Cc1cc(-c2nc(-c3cc(F)c(OC[C@H](N)CO)cc3Cl)no2)cc(OC(C)C)n1 .
[A] 0.067

====

Entries and their solubility kinetic
Assay: Kinetic solubility of the compound in buffer at pH 7.4 after 16 to 19 hrs by UV absorbance assay
Format: physicochemical
Conditions: read-out: Kinetic_solubility
# unit: µg/mL | format: bare number

input.smiles | reported.value
Cc1cc(-c2nnc(-c3cc(F)c(O[C@H]4CCC(=O)NC4)cc3Cl)s2)cc(NC(C)C)n1 | 0.8
Cc1cc(-c2nnc(-c3cc(F)c(O[C@@H]4CCC(=O)NC4)cc3Cl)s2)cc(NC(C)C)n1 | 1
Cc1cc(-c2nnc(-c3cc(F)c(OC[C@H](N)CO)cc3Cl)s2)cc(NC(C)C)n1 | 9

[Q] # get_value(readout='solubility kinetic', item= Cc1cc(-c2nc(-c3cc(F)c(OC[C@H](N)CO)cc3Cl)no2)cc(NC(C)C)n1 )
[A] 0.3

====

Entries and their pEC50
Molecular target: Sphingosine 1-phosphate receptor 1 (Homo sapiens)
Assay: Agonist activity at human S1P1 receptor expressed in EDG1-bla U2OS cells incubated for 18 hrs prior to GenBlazer substrate addition by beta-arrestin recruitment assay
For clarity, pEC50 is expressed as the negative log10 of concentration in mol/L.

Solved cases below.
input.smiles | assay.target | measurement.label | reported.value
Cc1cc(-c2nc(-c3cc(F)c(O[C@@H]4CNC(=O)C4)cc3Cl)no2)cc(NC(C)C)n1 | Sphingosine 1-phosphate receptor 1 (Homo sapiens) | pEC50 | 8.46
CC(C)Oc1ccc(-c2nnc(-c3cc(F)c(OC[C@H](N)CO)cc3Cl)s2)cc1Cl | Sphingosine 1-phosphate receptor 1 (Homo sapiens) | pEC50 | 7.49

Note: attention shifts to another entry.
[Q] # get_value(readout='pEC50', item= Cc1cc(-c2nc(-c3cc(F)c(OC[C@H]4CNC(=O)CO4)cc3Cl)no2)cc(NC(C)C)n1 )
[A] 7.85
